biological target: hOT7T175 (Homo sapiens, UniProt Q969F8, L364H); experiment: Intracellular Ca ion level-increasing activity using FLIPR in hOT7T175/CHO; type: cell-based; design: expressed in transfected cells; host or cells: CHO/dhfr- cells, obtained from ATCC; conditions: relative, Metastin (1-54) = 1
Sequence (Q969F8 whole entry L364H): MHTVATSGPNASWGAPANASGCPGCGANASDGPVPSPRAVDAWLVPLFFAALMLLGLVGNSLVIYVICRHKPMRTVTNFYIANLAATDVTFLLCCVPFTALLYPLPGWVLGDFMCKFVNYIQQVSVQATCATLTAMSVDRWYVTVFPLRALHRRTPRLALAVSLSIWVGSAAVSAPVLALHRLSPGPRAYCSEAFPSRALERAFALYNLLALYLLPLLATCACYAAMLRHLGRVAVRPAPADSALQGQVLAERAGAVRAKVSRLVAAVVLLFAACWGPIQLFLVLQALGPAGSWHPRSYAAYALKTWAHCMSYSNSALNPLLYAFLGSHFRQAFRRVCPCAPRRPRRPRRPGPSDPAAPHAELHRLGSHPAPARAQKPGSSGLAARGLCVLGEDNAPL
Square brackets hold non-standard residues; d marks the D form. Peptide text beside a SMILES is read from it. * marks the point of attachment. Diphenylacetyl = O=C(C(c1ccccc1)c1ccccc1)*; Phe(4-Cl) = N[C@@H](Cc1ccc(Cl)cc1)C(=O)O; 2Nal = N[C@@H](Cc1ccc2ccccc2c1)C(=O)O; Arg(Me) = CNC(=N)NCCC[C@H](N)C(=O)O; azaGly = NNC(=O)O
measurement.name: Specific Activity (intracellular Ca ion level-increasing activity)
Hey, just send me the number, nothing else.

# annotated cases, reported Specific Activity (intracellular Ca ion level-increasing activity) shown
CNC(=N)NCCC[C@H](NC(=O)[C@H](CC(C)C)NC(=O)NNC(=O)[C@H](Cc1ccccc1)NC(=O)[C@H](CO)NC(=O)[C@H](CC(N)=O)NC(=O)C(c1ccccc1)c1ccccc1)C(=O)N[C@@H](Cc1ccccc1)C(N)=O [Compound No. 268] (Diphenylacetyl-NSF[azaGly]L[Arg(Me)]F-NH2) ... 1
CNC(=N)NCCC[C@H](NC(=O)[C@H](CC(C)C)NC(=O)NNC(=O)[C@H](Cc1ccccc1)NC(=O)[C@H](CO)NC(=O)[C@H](CC(N)=O)NC(=O)[C@H](Cc1ccc(Cl)cc1)NC(=O)[C@H](CC(N)=O)NC(=O)[C@H](N)Cc1ccc(O)cc1)C(=O)N[C@@H](Cc1ccccc1)C(N)=O [Compound No. 249] (H-[dY]N[Phe(4-Cl)]NSF[azaGly]L[Arg(Me)]F-NH2) ... 1

For reference, reported Specific Activity (intracellular Ca ion level-increasing activity) for CNC(=N)NCCC[C@H](NC(=O)[C@H](CC(C)C)NC(=O)NNC(=O)[C@H](Cc1ccccc1)NC(=O)[C@H](CO)NC(=O)[C@H](CC(N)=O)NC(=O)[C@H](Cc1ccc2ccccc2c1)NC(=O)[C@H](N)Cc1ccc(O)cc1)C(=O)N[C@@H](Cc1ccccc1)C(N)=O [Compound No. 255] (H-[dY][2Nal]NSF[azaGly]L[Arg(Me)]F-NH2) stands at 1
